Each entry below carries its recorded IC50.
Biological target: Bcl-2 protein (histag-Bcl-2, UniProtKB P10415) (Homo sapiens, UniProt P10415)
Construct: His tag
Sequence (P10415 whole entry): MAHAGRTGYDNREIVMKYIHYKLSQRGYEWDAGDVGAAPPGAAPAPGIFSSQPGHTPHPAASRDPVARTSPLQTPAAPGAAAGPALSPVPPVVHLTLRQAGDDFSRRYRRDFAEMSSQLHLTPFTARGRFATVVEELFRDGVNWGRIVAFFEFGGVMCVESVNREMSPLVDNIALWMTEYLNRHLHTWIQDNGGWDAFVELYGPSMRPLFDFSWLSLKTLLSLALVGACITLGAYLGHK
Assay: Inhibition of Bcl-2 by the fluorescence polarisation technique
Assay type: binding
Conditions: fluorescence polarisation, 2 hours incubation; read-out: IC50 (nM) Bcl-2 FP
Structures can show the parent of a compound that is named as a salt.
Reply with the number, then its unit.

Guide cases for IC50, answers given:
• C[C@@H]1Cc2ccccc2CN1C(=O)c1cc2c(cc1-c1cc(C(=O)N(c3ccc(O)cc3)c3ccc(CCN4CCC(F)(F)C4)cc3)c3ccccn13)OCO2 [Example 36, hydrochloride] = 12.6 nM
• C[C@@H]1Cc2ccccc2CN1C(=O)c1cc2c(cc1-c1cc(C(=O)N(c3ccc(O)cc3)c3cncc(F)c3)c3ccccn13)OCO2 = 5.5 nM

Let us examine a further case.
Form: compound = C[C@@H]1Cc2ccccc2CN1C(=O)c1ccc(F)cc1-c1cc(C(=O)N(c2ccc(O)cc2)c2cnc3c(ccn3C)c2)c2ccccn12 ; IC50 = 6.2 nM
